# experimentDescription: loss of swimming-algae plug formation – whole organism, Chlamydomonas reinhardtii, WT vs cilia-less mutant, absorbance, 96-well, primary screen (AID 463189);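 note: 0% = wild type cc124 cells in DMSO and 100% = ciliumless bld1 mutant cells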
# appliedConditions: Chlamydomonas reinhardtii gravitaxis, OD600 absorbance, 2 days; at 10 µM; stronger effect = higher value
Task for the reader: assign each of the following molecules its reported inhibition.
Reply numerically in %, unit not repeated.

Query: // returns reported inhibition for input CNC[C@H](O)c1ccc(O)c(O)c1
Reply: 1.9

Query: Now the same for O=c1[nH]c(=O)n([C@H]2C[C@H](O)[C@@H](CO)O2)cc1/C=C/Br
Reply: 6.74

Query: Another: CCN1CCc2nc(N)oc2CC1
Reply: 6.74

Query: Same lookup for CN1CCC2(CCN3CCc4c(oc5ccccc45)C3C2)N(C)C1=O (stereo unspecified) , please.
Reply: -3.27

Query: Moving on to the next molecule: NC(=NCCC[C@H](N)C(=O)O)NO
Reply: -1.45

Query: Moving on to NCCc1cnc[nH]1
Reply: 2.56

Query: Also CCCCNc1ccc(C(=O)OCCN(C)C)cc1 , if possible.
Reply: 8.43

Query: What do you have for O=c1[nH]c2cc(C(F)(F)F)ccc2n1-c1cc(C(F)(F)F)ccc1O ?
Reply: -0.852

Query: # iterate: Cc1ncc([N+](=O)[O-])n1CCO
Reply: 1.99

Query: Proceed to CC(C)NC[C@H](O)c1ccc(O)c(O)c1
Reply: 8.51

Query: Cc1nc2c(OCc3ccccc3)cccn2c1CC#N , same question.
Reply: 3.47

Query: Also CN(C)CCCO[C@@H]1[C@H]2OC(C)(C)O[C@H]2O[C@@H]1C(O)CO (stereo partly specified) , if possible.
Reply: 0.355

Query: Again, but for CC(N)=NCCCC[C@@H](N)C(=O)O
Reply: 7.31

Query: How about CSc1nc(N)c2ncn([C@@H]3O[C@H](COP(=O)(O)OP(=O)(O)OP(=O)(O)O)[C@H](O)C3O)c2n1 (stereo partly specified) ?
Reply: -3.46

Query: Repeat with CCN(Cc1ccncc1)C(=O)C(CO)c1ccccc1 (stereo unspecified)
Reply: 7.61

Query: Similarly, C[N+]1(CCCCC[N+]2(C)CCCC2)CCCC1 ?
Reply: -4.7

Query: How about COc1cc2c(cc1O)CC[C@@H]1[C@@H]2CC[C@]2(C)[C@@H](O)CC[C@@H]12 ?
Reply: -5.37

Query: Another: NCCCCCCNS(=O)(=O)c1cccc2c(Cl)cccc12
Reply: 7.85

Query: Same question, NC1CCN(O)C1=O (stereo unspecified) this time
Reply: 2.51

Query: Next up: NCCNS(=O)(=O)c1cccc2cnccc12
Reply: -4.46

Query: Follow-up item: O=C1c2c(O)ccc(O)c2C(=O)c2c(NCCNCCO)ccc(NCCNCCO)c21
Reply: 28.8

Query: Cool, now Cc1cc(C)n(C(=O)CNC(=O)c2cccs2)n1
Reply: 16.6

Query: Repeat for the following molecule: NCCCC(N)(C(=O)O)C(F)F (stereo unspecified)
Reply: 3.03

Query: Entry to check: O=C(O)c1ccccc1Nc1ccccc1
Reply: 8.09

Query: Now consider CN1CC(=O)Nc2ccc(F)cc2C1=O .
Reply: -6.78

Query: // repeat for CCCCCCCCCCCCCCCC(=O)NCC(COP(=O)([O-])OCC[N+](C)(C)C)OCC (stereo unspecified) and report
Reply: -1.73
